The measurements presented in this section are drawn from patent US10975056B2.

# System: erythroid progenitor cells (EPCs)
# assay-remarks: Fetal hemoglobin (HbF) ELISA in day 7 erythroid progenitor cells;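 note: for fetal hemoglobin induction normalized to vehicle-treated cells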
# Type: cell-based, human
# conditions-used: Homo sapiens, Erythroid progenitor cell, HbF ELISA, day 7 EPCs, 5 days; read-out: EPC ELISA (pEC50 category) (converted)
Structures can show the parent of a compound that is named as a salt.
Documented EC50 across a set of compounds

Below: 2 compounds and their reported EC50.
{"compound": "CCc1c(C#N)c(SC(C(N)=O)c2ccccc2)nc(N2CCN(C(=O)C3(N)COC3)CC2)c1C#N (stereo not drawn) [Example 139, Formic Acid Salt]", "EC50": "0.316 to 1 µM"}
{"compound": "CCc1c(C#N)c(SC(C(N)=O)c2ccccc2)nc(N2CCO[C@H](CNC(=O)CN)C2)c1C#N (stereo partly drawn) [Example 592]", "EC50": "< 0.316 µM"}

Task item: Entry under review: CCc1c(C#N)c(SC(C(N)=O)c2ccccc2)nc(N2CCN(Cc3ccon3)CC2)c1C#N (stereo not drawn) [Example 183] . Reported EC50?
Reply: 1 to 31.6 µM

* * *

# measurement-target: DNMT1 (Homo sapiens)
# assay-remarks: DNMT1 biochemical activity, breaklight assay and/or SPA assay
# conditions-used: binned activity in either the breaklight or the SPA assay
Counter-ions that a name gives are not always drawn.
assay-endpoint: DNMT1 BioChemical (pIC50 category)

{"compound": "CCc1c(C#N)c(SC(C(N)=O)c2ccccc2)nc(N(C)CCN2CCC[C@H]2CO)c1C#N (stereo partly drawn)", "DNMT1 BioChemical (pIC50 category)": "D (Category D: ≥6.5)"}
{"compound": "CCc1c(C#N)c(SC(C(N)=O)c2ccccc2)nc(N2CCC2)c1C#N (stereo not drawn)", "DNMT1 BioChemical (pIC50 category)": "D (Category D: ≥6.5)"}
{"compound": "CCc1c(C#N)c(SC(C(N)=O)c2ccccc2)nc(N2CCC(N(C)CC)CC2)c1C#N (stereo not drawn)", "DNMT1 BioChemical (pIC50 category)": "D (Category D: ≥6.5)"}
{"compound": "CCc1c(C#N)c(SC(C(N)=O)c2ccccc2)nc(N2CCC(N(C)CC(C)(C)O)CC2)c1C#N (stereo not drawn)", "DNMT1 BioChemical (pIC50 category)": "D (Category D: ≥6.5)"}

Task item: Entry under review: CCc1c(C#N)c(SC(C(N)=O)c2ccc(C)cn2)nc(N2CCCN(C)CC2)c1C#N (stereo not drawn) . Reported DNMT1 BioChemical (pIC50 category)?
Reply: D (Category D: ≥6.5)

Task item: Also check CCc1c(C#N)c(SC(C(N)=O)c2ccccc2)nc(N2CCCN(CC)CC2)c1C#N (stereo not drawn)
Reply: D (Category D: ≥6.5)

Task item: Also check `CCc1c(C#N)c(S[C@@H](C(N)=O)c2ccc(F)cc2)nc(N2CC[C@H](O)C2)c1C#N`
Reply: D (Category D: ≥6.5)

Task item: Also check CCc1c(C#N)c(S[C@H](C(N)=O)c2ccc(F)cc2)nc(N2CCC(N(C)C)CC2)c1C#N (single isomer, unassigned) [Example 465, Formic acid salt]
Reply: D (Category D: ≥6.5)

Task item: Also check CCc1c(C#N)c(SC(C(N)=O)c2ccccc2)nc(N(C)CCN2[C@@H](C)CC[C@@H]2C)c1C#N (stereo partly drawn)
Reply: D (Category D: ≥6.5)

Task item: Also check CCc1c(C#N)c(SC(C(N)=O)c2ccccc2)nc(N2CCC(ONC(=N)N)CC2)c1C#N (stereo not drawn)
Reply: D (Category D: ≥6.5)

Task item: Also check CCc1c(C#N)c(S[C@@H](C(N)=O)c2ccccc2)nc(N(C)CCO)c1C#N (single isomer, unassigned)
Reply: D (Category D: ≥6.5)

Task item: Also check `CCc1c(C#N)c(SCc2ccc(CNC(=O)CN)cc2)nc(N(C)CCN(CC)CC)c1C#N`
Reply: D (Category D: ≥6.5)

Task item: Also check `CCc1c(C#N)c(SCc2ccc(NC(C)=O)cc2)nc(N2CCCN(C)CC2)c1C#N`
Reply: D (Category D: ≥6.5)

Task item: Also check CCc1c(C#N)c(SC(C(N)=O)c2ccccc2)nc(N2CCO[C@@H](CNC(=O)C(C)(C)N)C2)c1C#N (stereo partly drawn)
Reply: D (Category D: ≥6.5)

* * *

Documented EC50 across a set of molecules
# Test system: erythroid progenitor cells (EPCs)
# assay-remarks: Fetal hemoglobin (HbF) ELISA in day 7 erythroid progenitor cells;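 note: for fetal hemoglobin induction normalized to vehicle-treated cells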
# Type: cell-based, human
# conditions-used: Homo sapiens, Erythroid progenitor cell, HbF ELISA, day 7 EPCs, 5 days; read-out: EPC ELISA (pEC50 category) (converted)
Counter-ions that a name gives are not always drawn.

Below: 3 molecules and their reported EC50.
{"molecule": "CCc1c(C#N)c(SC(C(N)=O)c2ccccc2)nc(N2CCC[C@@H](NC)C2)c1C#N (some centres unmarked)", "measurement-target": "erythroid progenitor cells (EPCs)", "EC50": "< 316 nM"}
{"molecule": "CCc1c(C#N)c(SC(C(N)=O)c2ccccc2)nc(N(C)CCN2CC[C@H](N(C)C)C2)c1C#N (some centres unmarked)", "measurement-target": "erythroid progenitor cells (EPCs)", "EC50": "< 316 nM"}
{"molecule": "CCc1c(C#N)c(SCc2ccc(N(C)S(C)(=O)=O)cc2)nc(N(C)CCNC)c1C#N", "measurement-target": "erythroid progenitor cells (EPCs)", "EC50": "< 316 nM"}

Task item: Entry under review: CCc1c(C#N)c(SC(C(N)=O)c2ccc(F)cc2)nc(N(C)C)c1C#N (centres unmarked) . Reported EC50?
Reply: 316 to 1000 nM

Task item: Also check CCc1c(C#N)c(SC(C(N)=O)c2ccccc2)nc(N2CCC(N(C)CC(C)(C)C)CC2)c1C#N (centres unmarked)
Reply: < 316 nM

Task item: Also check CCc1c(C#N)c(SC(C(N)=O)c2ccccc2)nc(N2CCC2)c1C#N (centres unmarked)
Reply: 1000 to 31600 nM

Task item: Also check CCc1c(C#N)c(SC(C(N)=O)c2ccccc2)nc(N(C)CCN)c1C#N (centres unmarked) [Example 144, Trifluoroacetic Acid Salt]
Reply: < 316 nM

Task item: Also check `CCc1c(C#N)c(S[C@@H](C(N)=O)c2ccc(F)cc2)nc(N2CC[C@H](O)C2)c1C#N`
Reply: 316 to 1000 nM

* * *

# measurement-target: DNMT1 (Homo sapiens, UniProt P26358)
# Sequence (P26358 whole entry, looked up): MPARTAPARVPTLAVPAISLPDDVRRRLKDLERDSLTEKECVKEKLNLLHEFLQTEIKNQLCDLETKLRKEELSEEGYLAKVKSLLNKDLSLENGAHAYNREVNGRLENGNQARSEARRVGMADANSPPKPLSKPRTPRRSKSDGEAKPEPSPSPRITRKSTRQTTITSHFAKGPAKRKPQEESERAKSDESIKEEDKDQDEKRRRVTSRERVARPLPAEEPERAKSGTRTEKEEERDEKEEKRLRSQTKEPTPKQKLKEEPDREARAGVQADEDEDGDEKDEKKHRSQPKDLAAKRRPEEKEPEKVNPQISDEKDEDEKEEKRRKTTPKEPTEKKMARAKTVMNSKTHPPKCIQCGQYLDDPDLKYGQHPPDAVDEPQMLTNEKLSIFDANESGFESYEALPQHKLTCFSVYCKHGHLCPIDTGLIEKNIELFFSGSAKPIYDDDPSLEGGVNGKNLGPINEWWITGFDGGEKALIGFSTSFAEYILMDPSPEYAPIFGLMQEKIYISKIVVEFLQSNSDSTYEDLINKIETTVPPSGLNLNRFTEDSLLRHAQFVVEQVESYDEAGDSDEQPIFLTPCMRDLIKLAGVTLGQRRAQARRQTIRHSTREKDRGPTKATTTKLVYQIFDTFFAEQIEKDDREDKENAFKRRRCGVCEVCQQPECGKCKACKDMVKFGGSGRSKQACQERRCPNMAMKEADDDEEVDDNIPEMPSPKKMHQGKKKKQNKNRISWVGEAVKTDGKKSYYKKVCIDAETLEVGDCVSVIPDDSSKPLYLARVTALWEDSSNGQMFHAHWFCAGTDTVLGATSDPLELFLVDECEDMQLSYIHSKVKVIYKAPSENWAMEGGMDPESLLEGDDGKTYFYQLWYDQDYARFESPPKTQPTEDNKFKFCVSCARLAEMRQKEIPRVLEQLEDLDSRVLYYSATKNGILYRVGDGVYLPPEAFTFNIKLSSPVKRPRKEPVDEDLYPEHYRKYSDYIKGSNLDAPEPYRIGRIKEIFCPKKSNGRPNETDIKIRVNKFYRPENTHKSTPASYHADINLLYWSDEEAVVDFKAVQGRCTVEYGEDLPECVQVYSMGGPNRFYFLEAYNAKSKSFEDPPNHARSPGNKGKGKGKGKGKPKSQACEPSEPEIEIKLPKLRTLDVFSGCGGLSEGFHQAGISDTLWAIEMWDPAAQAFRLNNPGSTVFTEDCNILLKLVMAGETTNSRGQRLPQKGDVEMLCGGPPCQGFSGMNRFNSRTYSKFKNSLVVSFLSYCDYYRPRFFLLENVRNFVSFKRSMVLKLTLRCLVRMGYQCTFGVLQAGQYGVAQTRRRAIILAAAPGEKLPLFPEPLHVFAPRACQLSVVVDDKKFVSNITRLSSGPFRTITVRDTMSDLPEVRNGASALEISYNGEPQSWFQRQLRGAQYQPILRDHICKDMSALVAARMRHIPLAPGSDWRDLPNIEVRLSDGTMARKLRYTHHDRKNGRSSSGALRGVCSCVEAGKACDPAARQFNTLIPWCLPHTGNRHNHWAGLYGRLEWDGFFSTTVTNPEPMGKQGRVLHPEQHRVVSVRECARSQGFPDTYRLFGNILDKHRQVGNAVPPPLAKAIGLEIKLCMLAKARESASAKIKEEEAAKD
# assay-remarks: DNMT1 biochemical activity, breaklight assay and/or SPA assay
# conditions-used: binned activity in either the breaklight or the SPA assay

{"compound": "CCc1c(C#N)c(SCc2ccc(CNC(=O)[C@H](C)N)cc2)nc(N2CCCN(C)CC2)c1C#N", "measurement-target": "DNMT1 (Homo sapiens, UniProt P26358)", "DNMT1 BioChemical (pIC50 category)": "D (Category D: ≥6.5)"}
{"compound": "CCc1c(C#N)c(SC(C(N)=O)c2ccccc2)nc(N2CCC[C@H](NC)C2)c1C#N (stereo partly drawn)", "measurement-target": "DNMT1 (Homo sapiens, UniProt P26358)", "DNMT1 BioChemical (pIC50 category)": "D (Category D: ≥6.5)"}
{"compound": "CCc1c(C#N)c(SCc2ccc(N(C)S(C)(=O)=O)cc2)nc(N2CCC(NC(=O)[C@@H](C)N)CC2)c1C#N", "measurement-target": "DNMT1 (Homo sapiens, UniProt P26358)", "DNMT1 BioChemical (pIC50 category)": "D (Category D: ≥6.5)"}

* * *

# Test system: erythroid progenitor cells (EPCs)
# assay-remarks: Fetal hemoglobin (HbF) ELISA in day 7 erythroid progenitor cells;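 note: for fetal hemoglobin induction normalized to vehicle-treated cells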
# Type: cell-based, human
# conditions-used: Homo sapiens, Erythroid progenitor cell, HbF ELISA, day 7 EPCs, 5 days; read-out: EPC ELISA (pEC50 category) (converted)
Documented EC50 across a set of compounds

{"compound": "CCc1c(C#N)c(SC(C(N)=O)c2ccccc2)nc(N2CCC(CN3CCCC3)CC2)c1C#N (centres unmarked) [Example 445]", "assay-endpoint": "EC50", "recorded-measurement": "< 316 nM"}
{"compound": "CCc1c(C#N)c(SC(C(N)=O)c2ccccc2)nc(N2CCC(OCCOP(=O)(O)O)CC2)c1C#N (centres unmarked) [Example 154]", "assay-endpoint": "EC50", "recorded-measurement": "1000 to 31600 nM"}
{"compound": "CCc1c(C#N)c(SCc2ccc(N(C)S(C)(=O)=O)cc2)nc(N(C)CCNCCF)c1C#N [Example 500]", "assay-endpoint": "EC50", "recorded-measurement": "1000 to 31600 nM"}
{"compound": "CCc1c(C#N)c(SC(C(N)=O)c2ccccc2)nc(N2CC(O)C2)c1C#N (centres unmarked) [Example 146]", "assay-endpoint": "EC50", "recorded-measurement": "316 to 1000 nM"}

Task item: Entry under review: CCc1c(C#N)c(SC(C(N)=O)c2ccccc2)nc(N2CCC(NC(=O)CO)CC2)c1C#N (centres unmarked) [Example 286] . Reported EC50?
Reply: 1000 to 31600 nM

Task item: Also check CCc1c(C#N)c(SCc2cnn(CC(N)=O)c2)nc(N(C)C)c1C#N [Example 285]
Reply: 1000 to 31600 nM

Task item: Also check CCc1c(C#N)c(SC(C(N)=O)c2ccccc2)nc(N2CCN(C(C)=O)CC2)c1C#N (centres unmarked) [Example 126]
Reply: < 316 nM

Task item: Also check CCc1c(C#N)c(SCc2ccc(N)c(F)c2)nc(N2CCCN(C)CC2)c1C#N [Example 360]
Reply: 1000 to 31600 nM
